measured.target: PfPMT (Plasmodium falciparum)
Sequence (Q8IDQ9 whole entry): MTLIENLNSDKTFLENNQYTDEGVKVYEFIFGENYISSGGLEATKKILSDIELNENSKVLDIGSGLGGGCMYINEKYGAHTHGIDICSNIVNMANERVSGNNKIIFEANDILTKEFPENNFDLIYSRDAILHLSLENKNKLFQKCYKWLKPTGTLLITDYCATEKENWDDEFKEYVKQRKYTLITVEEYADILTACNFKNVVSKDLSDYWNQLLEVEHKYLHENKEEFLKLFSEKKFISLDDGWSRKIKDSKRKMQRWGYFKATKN
method.description: PfPMT gene replacement yeast growth
assay.conditions: read-out: % Inhibition in PfPMT gene replacement yeast, no added choline
Each entry below lists one item and its recorded inhibition at 100 µM value.
Output spec: scalar in %, unitless text.

# entry.smiles, inhibition at 100 µM (%)
data = [
    ("COc1cc2cc(C(=O)Nc3ccccc3)c(N)nc2cc1OC", 0),
    ("CCOC(=O)c1cnc2ccc(OC)cc2c1NCc1ccccc1", 0),
    ("CCN1CCN(c2cc(C)c3cc(NC(=O)c4ccc(OC)c(OC)c4)ccc3n2)CC1", 0),
    ("COc1ccc(C(=O)Nc2ccc3nc(N4CCCCC4)cc(C)c3c2)cc1OC", 0),
]

inhibition at 100 µM reading for CCN(CC)c1cc(C)c2cc(NC(=O)c3cccc(OC)c3)ccc2n1 : 16

---

Tested on: P. falciparum 3D7 trophozoites
method.description: Metabolomic fingerprint profiling LC-MS
Type: cell-based, Plasmodium falciparum
assay.conditions: metabolite level change after treatment
endpoint: myo-inositol
Write the number on its own, no unit after it.

Example entries begin here.
# compound, measured.target, assay.value
records = [
    ("CCc1ccc(Nc2cc(C)c3ccc(O)cc3n2)cc1", "P. falciparum 3D7 trophozoites", -0.5155),
    ("CCCN(CCC)CC(O)COc1ccccc1C(=O)Nc1ccccc1 (stereo not drawn)", "P. falciparum 3D7 trophozoites", 3.347),
]

myo-inositol reading for CCOC(=O)c1cnc2ccc(CC)cc2c1O : -0.5893

---

Tested on: P. falciparum 3D7 trophozoites
method.description: Metabolomic fingerprint profiling LC-MS
Type: cell-based, Plasmodium falciparum
assay.conditions: metabolite UDP-D-glucuronate, S2 Table Metabolomics
endpoint: UDP-D-glucuronate
Write the number on its own, no unit after it.

UDP-D-glucuronate reading for c1ccc(Cn2c(N=Nc3c(Nc4ccccc4)ccc4ccccc34)nc3ccccc32)cc1 : -0.02666

UDP-D-glucuronate reading for O=C1C(O)=C([C@H]2CC[C@H](c3ccc(Cl)cc3)CC2)C(=O)c2ccccc21 [Atovaquone, reference compound] : -0.0616

---

Each entry below lists one item and its recorded indole value.
Tested on: P. falciparum 3D7 trophozoites
method.description: Metabolomic fingerprint profiling LC-MS
Assay type: cell-based, Plasmodium falciparum
assay.conditions: metabolite indole, S2 Table Metabolomics
Write the number on its own, no unit after it.

P. falciparum 3D7 trophozoites data for CCOC(=O)c1cnc2ccc(CC)cc2c1O [MMV007116] ; its indole: -0.3037

P. falciparum 3D7 trophozoites data for C[n+]1c2ccccc2nc2ccc(NCCO)cc21 [MMV396693] ; its indole: 0.3367

P. falciparum 3D7 trophozoites data for O=[N+]([O-])c1ccc(C=NNc2nc3ccccc3[nH]2)cc1 [MMV666607] ; its indole: -0.1954

P. falciparum 3D7 trophozoites data for COc1ccc2c(c1)OC(O)(C(F)(F)C(F)(F)F)CC2=O (stereo not drawn) [MMV007839] ; its indole: 0.0845

P. falciparum 3D7 trophozoites data for CN1CCN(c2ccc(Nc3c4ccccc4nc4ccccc34)cc2)CC1 [MMV006172] ; its indole: -0.03187

P. falciparum 3D7 trophozoites data for CCN(CC)CCNc1ccnc2cc(Cl)ccc12 [MMV006087] ; its indole: 0.02177

P. falciparum 3D7 trophozoites data for Cc1ccc(Nc2nc(-c3ccccn3)cs2)cc1 [MMV007907] ; its indole: 0.3227

P. falciparum 3D7 trophozoites data for CCOC(=O)c1ccc2nc(-c3ccccc3)cc(O)c2c1 [MMV006457] ; its indole: 0.3097

P. falciparum 3D7 trophozoites data for CCOC(=O)c1cn(CC)c2cc(N3CCCCC3)c(F)cc2c1=O [MMV665827] ; its indole: -0.0107

P. falciparum 3D7 trophozoites data for Cc1ccc(Nc2nc(NCCO)c3ccccc3n2)cc1C [MMV001038] ; its indole: -0.2391

P. falciparum 3D7 trophozoites data for CCOC(=O)c1cnc2c(C)cc(C)cc2c1Nc1ccc(OC)c(OC)c1 [MMV008294] ; its indole: 0.4569

P. falciparum 3D7 trophozoites data for Cc1ccc(-c2cc3c(SCC(=O)Nc4cc(C(F)(F)F)ccc4Cl)nccn3n2)cc1 [MMV396680] ; its indole: -0.003888
